# assay.name: Cell viability in absence of light (trypan blue exclusion)
# Assay type: cell-based, human
# details: human; 25 μM; dark; medium 1.5 hours; counted 2.5 hours after
measurement.kind: viability at 1.5 h, 25 µM (%)
One number for each entry, in %.

viability at 1.5 h, 25 µM reported for this compound CCCCCCNc1ccc2c3c(cccc13)C(=O)N(CCCCCC)C2=O [Compound 1b, 4-(hexyl)amino-N-hexyl-1,8-naphthalimide] : 97.1

// data source = patent US5235045A
